Assay: Human HepG2 cell viability assay in 384 well format
Assay type: toxicity, cell-based
Parameters: dose 125 nL, time 70.5 hour; concentration not given beside the values
Conditions: HepG2 cells, read-out: Inhibition

>  <molecule>
O=C(c1cnccn1)N1CCCC2(CCN(Cc3ccsc3)CC2)C1

>  <unit of measurement>
%

>  <cytotoxicity at 70.5 h>
3.52

$$$$
>  <molecule>
COCCNC(=O)c1cc(-c2cc[nH]n2)n2ccccc12

>  <unit of measurement>
%

>  <cytotoxicity at 70.5 h>
-117

$$$$
>  <molecule>
O=C(c1cccnc1OCC(F)(F)F)N1CCCn2ncnc21

>  <unit of measurement>
%

>  <cytotoxicity at 70.5 h>
14.8

$$$$
>  <molecule>
COc1cccc(CNCc2c(C(C)C)nn(C)c2N(C)C)c1

>  <unit of measurement>
%

>  <cytotoxicity at 70.5 h>
1.8

$$$$
>  <molecule>
CN(C)C1(CNc2nccc(-c3cnn(C)c3)n2)CCSC1 (stereo not drawn)

>  <unit of measurement>
%

>  <cytotoxicity at 70.5 h>
-0.261

$$$$
>  <molecule>
CCc1nc(Cn2c(=O)c3c(C(F)(F)F)cc(C)nc3n2C)no1

>  <unit of measurement>
%

>  <cytotoxicity at 70.5 h>
0.468

$$$$
>  <molecule>
O=C(NCC(Cc1cccc(F)c1)N1CCCC1=O)c1ccc[nH]c1=O (stereo not drawn)

>  <unit of measurement>
%

>  <cytotoxicity at 70.5 h>
-16.4

$$$$
>  <molecule>
O=C(NCCNc1ncccn1)N1CCCC1c1ccncc1 (stereo not drawn)

>  <unit of measurement>
%

>  <cytotoxicity at 70.5 h>
1.65

$$$$

* * *

Experiment: Human HepG2 cell viability assay in 384 well format
Assay type: toxicity, cell-based
Set-up: dose 125 nL, time 70.5 hour; concentration not given beside the values
Settings: HepG2 cells, read-out: Inhibition
The entries below come with measured cytotoxicity at 70.5 h values attached.

>  <compound>
CCc1c(C)sc2nc3n(CCN4CCCCC4)nc(SC)n3c(=O)c12

>  <unit of measurement>
%

>  <cytotoxicity at 70.5 h>
13.4

$$$$
>  <compound>
Cc1cccc(CN2CCN3C[C@H](Oc4cncnc4)C[C@H]3C2)n1

>  <unit of measurement>
%

>  <cytotoxicity at 70.5 h>
-0.54

$$$$
>  <compound>
CS(=O)(=O)NCC1CCCCN1Cc1ccccc1C#N (stereo unspecified)

>  <unit of measurement>
%

>  <cytotoxicity at 70.5 h>
-10.5

$$$$
>  <compound>
CN1CCCCc2c1nc1c(c2N)CCCC1

>  <unit of measurement>
%

>  <cytotoxicity at 70.5 h>
-5.71

$$$$
>  <compound>
CCc1cc(CNC(=O)c2cc(NC(=O)C(C)C)ccc2Cl)[nH]n1

>  <unit of measurement>
%

>  <cytotoxicity at 70.5 h>
-9.06

$$$$
>  <compound>
O=C(O)c1nnn(-c2ccccc2F)c1-c1ccncc1

>  <unit of measurement>
%

>  <cytotoxicity at 70.5 h>
5.16

$$$$
>  <compound>
CC(=O)N1CC(=O)N(c2ccccc2)CC12CCN(Cc1cccs1)C2 (stereo unspecified)

>  <unit of measurement>
%

>  <cytotoxicity at 70.5 h>
-5.96

$$$$
>  <compound>
CCn1cc(NC(=O)NCC(O)COc2cccc(F)c2)cn1 (stereo unspecified)

>  <unit of measurement>
%

>  <cytotoxicity at 70.5 h>
-4.45

$$$$
>  <compound>
O=C(N1CCOCC1)[C@@]12CCO[C@@H]1CCN(CC1CCCC1)C2

>  <unit of measurement>
%

>  <cytotoxicity at 70.5 h>
49.2

$$$$
>  <compound>
CC(NCc1cc2cc(F)ccc2o1)c1nnc2n1CCCC2 (stereo unspecified)

>  <unit of measurement>
%

>  <cytotoxicity at 70.5 h>
-5.97

$$$$
>  <compound>
CSc1ccc(NC(=O)NCC(O)C2CC2)cc1F (stereo unspecified)

>  <unit of measurement>
%

>  <cytotoxicity at 70.5 h>
7.73

$$$$
>  <compound>
CCc1nc2n(n1)CC(NCc1nc3ccccc3nc1C)CC2 (stereo unspecified)

>  <unit of measurement>
%

>  <cytotoxicity at 70.5 h>
1.64

$$$$
>  <compound>
Cc1cc(=O)n2nc(-c3cccs3)nc2n1CC(=O)NC(C)C

>  <unit of measurement>
%

>  <cytotoxicity at 70.5 h>
-24

$$$$
>  <compound>
CN1CCOC(C(=O)N2CCOC3(CCCC3)C2)C1 (stereo unspecified)

>  <unit of measurement>
%

>  <cytotoxicity at 70.5 h>
-1.85

$$$$
>  <compound>
CCc1noc(C(C)N2CCN(CC(C)C)CC2)n1 (stereo unspecified)

>  <unit of measurement>
%

>  <cytotoxicity at 70.5 h>
12.8

$$$$
>  <compound>
Cn1cccc1C(=O)N1C[C@H]2CN(CC3CC3)C(=O)[C@H]2C1

>  <unit of measurement>
%

>  <cytotoxicity at 70.5 h>
6.81

$$$$
>  <compound>
Cn1nnc2c(N3CC(C(=O)NCc4ccccc4F)C3)ncnc21

>  <unit of measurement>
%

>  <cytotoxicity at 70.5 h>
-8.25

$$$$
>  <compound>
COc1ccc(OC2CCN(C(=O)c3ccc(C(C)=O)s3)CC2)cc1

>  <unit of measurement>
%

>  <cytotoxicity at 70.5 h>
-6.92

$$$$
>  <compound>
COc1cc(C(C)=O)ccc1SCC(=O)Nc1ccc(C)cn1

>  <unit of measurement>
%

>  <cytotoxicity at 70.5 h>
-7.73

$$$$
>  <compound>
CCc1cc(CN(C)C(=O)C2CC(=O)N(c3cccc(O)c3)C2)on1 (stereo unspecified)

>  <unit of measurement>
%

>  <cytotoxicity at 70.5 h>
-1.3

$$$$
>  <compound>
CCN1CC(=O)c2sc(NC(C)C)nc2C1

>  <unit of measurement>
%

>  <cytotoxicity at 70.5 h>
5.33

$$$$
